System: M. tuberculosis H37Rv growth inhibition, 7H9 media
Assay: M. tuberculosis growth inhibition, HTS (AID 449762);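 note: bacterial growth assessed after seven days of incubation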
Settings: measured here: IC90 growth inhibition
Results filed as inconclusive are left out.
Under this convention, Yes denotes IC90 strictly below 20 µM and No denotes IC90 at or above 20 µM.

Data request: Lab note: IC90 threshold 20 µM. Does this molecule come in strictly under it? "CCNc1nc(Nc2ccc(C)c(Cl)c2)c2cnn(C)c2n1"
Data returned: No

Data request: I'd appreciate it if you could check whether "Cc1ccc(NN=C2c3ccccc3-c3ccccc32)cc1" has IC90 smaller than 20 µM.
Data returned: No

Data request: Is IC90 strictly under 20 µM for the entry "COc1ccc(N=c2ssnc2Cl)cc1" ?
Data returned: No

Data request: Dear reviewer, please state whether CCOc1ccc(N(C(=O)/C=C/C(=O)Nc2cc(C)on2)C(C(=O)NC2CCCC2)c2ccccc2C)cc1 (stereo unspecified) has IC90 strictly beneath 20 µM.
Data returned: No

Data request: Is IC90 of COc1ccc(C2CC(c3cccs3)=Nc3ccccc3S2)cc1 (stereo unspecified) strictly below 20 µM?
Data returned: No

Data request: Item "Cc1nc(-c2nc(-c3c(C(=O)NNC(=O)c4ccc(Cl)cc4)noc3C)cs2)cs1" : IC90 beneath 20 µM, strictly?
Data returned: Yes

Data request: Lab note: IC90 threshold 20 µM. Does this molecule come in strictly under it? "c1ccc(C[C@H]2CN=C(Nc3ccccc3)N2CCCC2CCCC2)cc1"
Data returned: No

Data request: Would you kindly verify if IC90 of OCC(O)/C=N/Nc1nc(Nc2ccccc2)nc(Nc2ccccc2)n1 (stereo unspecified) is strictly less than 20 µM?
Data returned: Yes

Data request: IC90 under 20 µM? Item: "CCOc1ccc2nc(N/C(N)=N/C(=S)Nc3cccc(C)c3)nc(C)c2c1"
Data returned: No

Data request: For "CC(C)OC(=O)/C(C#N)=C/c1ccc(-c2ccc(SC(F)F)cc2)o1" , is the recorded IC90 below the cut-off of 20 µM?
Data returned: Yes

Data request: Dear colleague, could you confirm whether IC90 of "CCCOC(=O)CSc1nc(N2CCOCC2)c2c(c1C#N)CC(C)(C)OC2" falls below 20 µM? Thanks.
Data returned: No

Data request: Given "COc1ccc(CNC(=O)c2c(N)n(CCCN3CCOCC3)c3nc4ccccc4nc23)cc1" , is recorded IC90 strictly lower than 20 µM?
Data returned: No

Data request: Hello, is IC90 of the following molecule strictly smaller than 20 µM? "O=C(CSc1nc2ccccc2c(=O)[nH]1)NCc1ccc(Cl)cc1"
Data returned: Yes

Data request: Bench note: check whether "COc1cc2c(-c3ccc4[nH]ccc4c3)c(-c3ccc(C#N)cc3)oc(=O)c2cc1OC" shows IC90 below 20 µM
Data returned: No

Data request: Just wondering, is IC90 of "CC(C)Cn1c(N2CCN(C(=O)/C=C/c3ccccc3)CC2)nc2ccccc21" below 20 µM?
Data returned: No

Data request: Quick check: IC90 of "COc1ccccc1/C=C/C1=NC(=C\C=C/c2ccccc2)/C(=O)O1" under 20 µM?
Data returned: No

###

Test system: M. tuberculosis H37Rv growth inhibition, 7H9 media
Test: M. tuberculosis growth inhibition, HTS (AID 449762);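 note: bacterial growth assessed after seven days of incubation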
Conditions: measured here: IC90 growth inhibition
Inconclusive results are not listed.
measure: IC90 (µM)
Give a bare numeral; the unit µM is implied.

Data request: Look up IC90 for this molecule: "Cc1ccc(C(=O)N/N=C(/CC(=O)c2cccs2)C(F)(F)F)cc1"
Data returned: 3.28

Data request: Report IC90 for COC(=O)CN1C(c2ccc(Cl)cc2)=Nc2ccc(Cl)cc2C1c1ccccc1 (stereo not drawn) please.
Data returned: 13.7

Data request: Item under review: "c1ccc2nc(-c3ccc(-n4ccnc4)cc3)ccc2c1" . Reported IC90?
Data returned: 25.9

Data request: Name the reported IC90 value associated with the molecule "CCN(CC)CCNC(=O)c1ccc(NC(=O)c2cn(-c3ccccc3)nc2-c2cccs2)cc1"
Data returned: 27.1

Data request: IC90 for Cn1c(NCC(O)c2ccccc2)nc2c1c(=O)n(Cc1ccc(Cl)c(Cl)c1)c(=O)n2C (stereo not drawn) ?
Data returned: 18.1

Data request: Field request: IC90 | item: "C/C(CC(=O)Nc1ccc(Cl)cc1C(F)(F)F)=N\NC(N)=S"
Data returned: 19.5

Data request: IC90 lookup needed for Cc1ccc(C(=O)N2N=C(c3ccc(NS(C)(=O)=O)cc3)CC2c2cccs2)cc1 (stereo not drawn) , thanks.
Data returned: 21.2

Data request: I would be grateful if you could share the reported IC90 for "CCOC(=O)CSc1nc(N)c(C(=O)Nc2ccc(N(C)C)cc2)s1" .
Data returned: 5.82

Data request: Item under review: "COc1ccc(CNC[C@@H](CCCCN(C)Cc2ccc(OC)cc2)N2C[C@H](c3ccccc3)N(CCc3ccc(Cl)c(Cl)c3)C(=O)C2=O)cc1" . Reported IC90?
Data returned: 8.71

Data request: Tell me the measured IC90 of "CCOC(=O)Cc1csc(NC(=O)c2c(O)c3c(n(CC(C)C)c2=O)CCCC3)n1" , please.
Data returned: 72

Data request: Any idea what its IC90 is? The molecule is "S=C1SCN(Cc2ccco2)CN1Cc1ccco1"
Data returned: 52.3

Data request: # IC90 lookup, item "CCOC(=O)c1c(NC(=O)CSc2nc3ccc(OC)cc3[nH]2)sc2c1CC(C)(C)NC2(C)C"
Data returned: 26.2
